Reported Percent Control is given for each of the following compounds.
# Tested on: CDK8;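 further: KINOMEscan scanMAX binding as percent activity remaining versus control; lower means stronger binding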
# protocol conditions: Compound Concentration (nM):1000

compound	target	Percent Control [%]
Cl.O=C(O[C@H]1CN[C@H](C#Cc2cc3ncnc(Nc4ccc5c(cnn5Cc5ccccc5)c4)c3s2)C1)N1CCOCC1 [GSK200398A]	CDK8	84
NS(=O)(=O)c1ccc(N/N=C2\C(=O)Nc3ccc(C(=O)NCCc4c[nH]cn4)cc32)cc1 [GW300660X]	CDK8	100
CC(C)COC(=O)c1ccc2c(c1)/C(=C/Nc1ccc(S(N)(=O)=O)cc1)C(=O)N2 [GW416981X]	CDK8	86
COc1cc2ncn(-c3cc(O[C@H](C)c4ccccc4Cl)c(C(N)=O)s3)c2cc1OC [GSK237701A]	CDK8	48
